Assay: Toxicity against murine J774 macrophage cells
Type: cell-based
Settings: mouse
measurement_name: log10 IC50 (log10 of the value in µg/mL)
// units: µg/mL (pre-log); metric: IC50; scale: log10

Some solved entries appear below for comparison.
INSERT INTO results (molecule, observed) VALUES
  ('CC(C)(C)NCc1c(O)cc(-c2ccc(Cl)cc2)c(CNC(C)(C)C)c1Nc1ccnc2cc(Cl)ccc12', 0.56),
  ('CC(C)(C)NCc1cc(Nc2cc[n+]([O-])c3cc(Cl)ccc23)cc(-c2ccc(Cl)cc2)c1O', 0.86),
  ('CC(C)(C)NCc1c(O)cc(-c2ccc(Cl)cc2)cc1Nc1ccnc2cc(Cl)ccc12', 0.20),
  ('CC(C)(C)NCc1c(O)cc(-c2ccc(C(F)(F)F)cc2)cc1Nc1ccnc2cc(Cl)ccc12', 0.23),
  ('CC(C)(C)NCc1c(Nc2ccnc3cc(Cl)ccc23)cc(O)cc1-c1ccc(C(F)(F)F)cc1', 1.06),
  ('CC(C)(C)NCc1cc(Nc2ccnc3cc(Cl)ccc23)cc(-c2ccc(Cl)cc2)c1O [TEBUQUINE]', 0.26);

Record CC(C)(C)NCc1c(O)cc(Nc2ccnc3cc(Cl)ccc23)c(CNC(C)(C)C)c1-c1ccc(Cl)cc1 . Reported log10 IC50: 0.45

Value of measured log10 IC50 for the entry CC(C)(C)NCc1c(Nc2ccnc3cc(Cl)ccc23)cc(O)cc1-c1ccc(Cl)cc1 : 0.79

log10 IC50 reported for this molecule CC(C)(C)NCc1c(O)cc(-c2ccc(C(F)(F)F)cc2)c(CNC(C)(C)C)c1Nc1ccnc2cc(Cl)ccc12 : -0.12

Sourced from ChEMBL document CHEMBL1141408
